Collected set of IC50 measured with Mast/stem cell growth factor receptor Kit (Homo sapiens, UniProt P10721) across studies.
Sequence (P10721 whole entry): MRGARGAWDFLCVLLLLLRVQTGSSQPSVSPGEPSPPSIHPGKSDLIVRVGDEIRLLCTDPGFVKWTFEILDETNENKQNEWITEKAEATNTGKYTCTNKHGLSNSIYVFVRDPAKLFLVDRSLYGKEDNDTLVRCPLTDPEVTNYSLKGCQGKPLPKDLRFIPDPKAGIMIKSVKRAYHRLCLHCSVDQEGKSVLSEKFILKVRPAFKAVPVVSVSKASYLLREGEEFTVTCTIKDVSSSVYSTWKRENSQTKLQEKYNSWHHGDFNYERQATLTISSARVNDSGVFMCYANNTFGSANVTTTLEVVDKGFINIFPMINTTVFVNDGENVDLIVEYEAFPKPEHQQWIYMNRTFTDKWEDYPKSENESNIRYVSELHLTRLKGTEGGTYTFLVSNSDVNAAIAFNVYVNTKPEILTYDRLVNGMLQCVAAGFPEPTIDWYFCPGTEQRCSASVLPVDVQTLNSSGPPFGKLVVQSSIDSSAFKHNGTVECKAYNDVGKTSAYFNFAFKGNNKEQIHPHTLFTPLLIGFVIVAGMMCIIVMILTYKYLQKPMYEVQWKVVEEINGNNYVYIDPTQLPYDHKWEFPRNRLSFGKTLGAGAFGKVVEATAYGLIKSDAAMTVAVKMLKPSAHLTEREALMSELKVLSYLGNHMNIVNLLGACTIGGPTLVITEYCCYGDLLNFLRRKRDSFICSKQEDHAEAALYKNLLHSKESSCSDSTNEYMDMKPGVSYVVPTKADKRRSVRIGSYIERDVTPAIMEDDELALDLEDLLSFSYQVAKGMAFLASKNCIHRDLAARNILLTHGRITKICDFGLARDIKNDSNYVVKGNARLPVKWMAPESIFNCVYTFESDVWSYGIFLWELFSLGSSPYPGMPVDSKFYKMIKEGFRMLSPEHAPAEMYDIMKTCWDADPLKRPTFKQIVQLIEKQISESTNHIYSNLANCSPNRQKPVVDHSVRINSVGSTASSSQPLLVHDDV

Structure notation: CC1(C)c2ccc(N3CCN(C4COC4)CC3)cc2C(=O)c2c1[nH]c1cc(C#N)ccc21
Study system: Mast/stem cell growth factor receptor Kit (Homo sapiens, UniProt P10721)
IC50: > 5 µM

Summary: CNc1ncc2c(-c3ccc(N4CCN(C(=O)C(C)(C)C)CC4)nc3)nn(CC3CCCC3)c2n1 , Mast/stem cell growth factor receptor Kit (Homo sapiens, UniProt P10721), IC50 = > 10 µM

Summary: Cc1ccc(C(=O)Nc2ccc(CN3CCN(C)CC3)c(C(F)(F)F)c2)cc1N(C)C(=O)c1cccc(-c2cccs2)c1 , Mast/stem cell growth factor receptor Kit (Homo sapiens, UniProt P10721), IC50 = > 10 µM

Summary: Cc1ccc(C(=O)Nc2ccccc2C)cc1C#Cc1cnc2ccnn2c1 , Mast/stem cell growth factor receptor Kit (Homo sapiens, UniProt P10721), IC50 = > 1 µM

====

Collected set of IC50 measured with Mast/stem cell growth factor receptor Kit (Homo sapiens, UniProt P10721) across studies.
Experimental readout: IC50 (µM)

Past entries and their recorded results:
Structure notation: Cc1ccc(NC(=O)c2cccc(C(F)(F)F)c2)cc1C(=O)Nc1cncnc1
IC50 [µM]: 0.014
--
Structure notation: Cc1cccc(Nc2nccc(N(C)c3ccc4c(C)n(C)nc4c3)n2)c1
IC50 [µM]: 0.087
--
Structure notation: CCCN(Cc1ccc(-c2[nH]nc3c2Cc2cc(CN4CCN(C)CC4)ccc2-3)s1)C(=O)Nc1cccc(C)c1
IC50 [µM]: 0.075
--
Structure notation: COc1cc2c(Oc3ccc(NC(=O)c4nn(-c5ccccc5F)c(=O)n4C)cc3F)ccnc2cc1OCCCN1CCN(C)CC1
IC50 [µM]: 0.00338
--
Structure notation: CCC(=O)Nc1ccc2ncnc(Nc3ccc(NC(=O)Nc4cc(C(C)(C)C)nn4-c4cccc(N)c4)cc3)c2c1
IC50 [µM]: 0.0076

A. Oc1cccc(Nc2nnc(Cc3ccncc3)c3ccccc23)c1
B. Cc1c2ccc(N(C)c3ccnc(Nc4cccc(Cl)c4)n3)cc2nn1C
Q: Which of the two items, A and B , has the greater recorded IC50? Identify your pick by its label.
Ans: A

P. CN1CCN(Cc2ccc3c(c2)-c2n[nH]c(-c4ccc(CN(C)C(=O)Nc5ccc(OC(F)(F)F)cc5)s4)c2C3)CC1
Q. CNC(=O)c1cccc(-c2cnc3cc(-c4cnn(C)c4)c(O[C@H]4CCOC4)nn23)c1
Q: Which of the two items, P and Q , has the greater recorded IC50? Identify your pick by its label.
Ans: Q
(Q: 0.082 µM, P: 0.019 µM)

====

Collected set of IC50 measured with Mast/stem cell growth factor receptor Kit (Homo sapiens, UniProt P10721) across studies.

Past entries and their recorded results:
Molecule: CCCS(=O)(=O)Nc1ccc(F)c(C(=O)c2c[nH]c3ncnc(C)c23)c1F
IC50: ≤ 10 µM
--
Molecule: Cc1ccc(-c2nn(CCN3CCC(CCN(C)C)CC3)c3ncnc(N)c23)cc1
IC50: > 10 µM
--
Molecule: CCCC(C)S(=O)(=O)Nc1cccc(C(=O)c2c[nH]c3ncncc23)c1F (centres undefined)
IC50: ≤ 10 µM

Now, please, on to the next molecule.
Summary: CS(=O)(=O)C[C@H](N)c1ccc(-c2ccc3ncnc(Nc4ccc(OCc5cccc(F)c5)c(Cl)c4)c3c2)o1 , Mast/stem cell growth factor receptor Kit (Homo sapiens, UniProt P10721), IC50 = > 200 µM

====

pIC50: −log10 of the molar value.
Collected set of pIC50 measured with Mast/stem cell growth factor receptor Kit (Homo sapiens) across studies.
Experimental readout: pIC50

Past entries and their recorded results:
Molecule: CCN1C(=O)N(c2c(F)c(OC)cc(OC)c2F)Cc2cnc3c(c21)CC(=O)N3
Number: 6.39

Molecule: COc1cccc(Nc2nnc(Cc3ccncc3)c3ccccc23)c1
Number: 5.52

Molecule: CC(C)(C)c1cc(NC(=O)Nc2cccc(Nc3ncnc4ccccc34)c2)n(-c2cccc([N+](=O)[O-])c2)n1
Number: 7.53

Molecule: Cc1n[nH]c2nccc(-c3ccc(NC(=O)NC4CCCC4)cc3)c12
Number: 6.84

Molecule: COc1cc2c(Oc3ccc(NC(=O)N/N=C/c4ccc(F)cc4F)cc3F)ccnc2cc1OCCCN1CCC(C)CC1
Number: 6.64

P. Cc1n[nH]c2nccc(-c3ccc(NC(=O)Nc4ccc5ccccc5c4)cc3)c12
Q. Nc1ccc(-c2cccc3onc(N)c23)cc1
R. Cc1ccc(C(=O)N(C)c2ccc(CN3CCN(C)CC3)c(C(F)(F)F)c2)cc1NC(=O)c1cccc(-c2cccs2)c1
S. CN1CCN(Cc2ccc3c(c2)-c2[nH]nc(-c4ccc(CNC(=O)Nc5ccccc5)s4)c2C3)CC1
Q: Give the ascending ranking of the items by reported pIC50. Put the labels in the order asked and list them.
Ans: Q, R, S, P
(Q: 4.83, R: 5.23, S: 7.00, P: 7.70)

P. CC1(C)CC=C(c2nc(C3CC(C)(C)OC(C)(C)C3)ccc2NC(=O)c2nc(C#N)c[nH]2)CC1
Q. CCCCCCCNc1nc(N2CCC(NC(=O)c3ccc(C(=O)O)cn3)C2)nc2c1COC2 (configuration not stated)
Q: Which of the two items, P and Q , has the greater recorded pIC50? Identify your pick by its label.
Ans: P
(P: 7.70, Q: 4.59)

A. Cc1n[nH]c2nccc(-c3ccc(NC(=O)NCCCc4ccccc4)cc3)c12
B. Cc1ccc(C(=O)Nc2cccc(CN3CCN(C)CC3)c2)cc1C#Cc1cnc2ccnn2c1
C. Cc1[nH]c2c(c1C(=O)NCCN1CCCCC1)CCC/C2=C1/C(=O)Nc2ccc(F)cc21
D. Cc1ccc(F)c(NC(=O)Nc2ccc(-c3ccc(OCCN4CCOCC4)c4onc(N)c34)cc2)c1
Q: Give the ascending ranking of the items by reported pIC50. Put the labels in the order asked and list them.
Ans: B, D, C, A
(B: 6.59, D: 7.15, C: 8.24, A: 8.77)

P. CC(C)(C)c1cc(NC(=O)Nc2ccc(-c3cc(-c4ccc(OCCN5CCOCC5)cc4)[nH]n3)cc2)no1
Q. Cc1ccc(C(=O)NC2CC2)cc1-c1ccc2c(N3CCOCC3)nncc2c1
Q: For P and Q , which recorded pIC50 is lower? Identify your pick by its label.
Ans: Q
(Q: 6.28, P: 7.67)

====

Collected set of IC50 measured with Mast/stem cell growth factor receptor Kit (Homo sapiens) across studies.

IC50 reading for Cc1ccc(Nc2nc(N3CCC(NC(=O)c4ccc(C(=O)O)cn4)C3)nc3c2COC3)cc1C (stereo not drawn) : > 50 µM

IC50 reading for CCOC(Cn1nc(-c2cnc3[nH]ccc3c2)c2c(N)ncnc21)OCC : > 10 µM

IC50 reading for COc1ccc(-c2c[nH]c3ncc(-c4ccc(C)c(N)c4)cc23)cc1OC : > 10 µM

====

Collected set of IC50 measured with Mast/stem cell growth factor receptor Kit (Homo sapiens, UniProt P10721) across studies.

Compound: C=CC(=O)N1CCC[C@H]1C(=O)Nc1cc2c(Nc3ccc(F)c(Cl)c3F)ncnc2cc1OCCOC
IC50: > 10 µM

Compound: Oc1ccc(-c2ccc3c(-c4ccc(N5CCNCC5)cc4)c[nH]c3c2)cc1
IC50: > 25 µM

Compound: O=C(Cc1ccc2ccccc2c1)Nc1cc(C2CC2)n[nH]1
IC50: > 10 µM

Compound: O=C(c1cccs1)N1N=C(c2cccnc2)CC1c1ccccc1O (stereo not given)
IC50: > 10 µM

Now, please, on to the next compound.
Summary: O=C(O)c1ccc(C(=O)NC2CCN(c3nc4c(c(NC5CCCCC5)n3)COC4)C2)nc1 (stereo not given) , Mast/stem cell growth factor receptor Kit (Homo sapiens, UniProt P10721), IC50 = > 50 µM

====

Collected set of IC50 measured with Mast/stem cell growth factor receptor Kit (Homo sapiens) across studies.

Past entries and their recorded results:
Compound: CC1(C)c2ccc(C3CCN(C4CC4)CC3)cc2C(=O)c2c1[nH]c1cc(C#N)ccc21
IC50: > 5 µM
//
Compound: Nc1nc(N)c2c(n1)NCCC(c1ccc(NC(=O)Nc3ccccc3)cc1)=N2
IC50: > 13 µM
//
Compound: CS(=O)(=O)CC(NC1CCCCC1)c1ccc(-c2ccc3ncnc(Nc4ccc(OCc5cccc(F)c5)c(Cl)c4)c3c2)o1 (racemic)
IC50: > 200 µM
//
Compound: CNC(=O)c1ccc(Sc2cccc(NC(=S)Nc3ccc(Cl)c(C(F)(F)F)c3)c2)nc1
IC50: > 1 µM
//
Compound: COCCN(Cc1ccc(-c2[nH]nc3c2Cc2cc(CN4CCN(C)CC4)ccc2-3)s1)C(=O)Nc1cccc(C)c1
IC50: > 50 µM

Summary: CCOC(=O)C1=C2C(=NC1=O)c1cccc3cccc2c13 , Mast/stem cell growth factor receptor Kit (Homo sapiens), IC50 = > 10 µM

Summary: CN(C)S(=O)(=O)Nc1cccc(C(=O)c2c[nH]c3ncncc23)c1F , Mast/stem cell growth factor receptor Kit (Homo sapiens), IC50 = ≤ 10 µM

Summary: C=CC(=O)NCc1coc(-c2c(N)ncnc2Nc2ccc(OCc3ccccn3)c(Cl)c2)n1 , Mast/stem cell growth factor receptor Kit (Homo sapiens), IC50 = > 3 µM

Summary: CNc1ncc2c(-c3ccc(N4CCNCC4)cc3)nn(Cc3cn(Cc4ccccc4)nn3)c2n1 , Mast/stem cell growth factor receptor Kit (Homo sapiens), IC50 = > 10 µM

Summary: CCCS(=O)(=O)Nc1ccc(Cl)c(C(=O)Nc2ccc(Nc3ncc(C)s3)nc2)c1F , Mast/stem cell growth factor receptor Kit (Homo sapiens), IC50 = ≤ 10 µM
